- experimental.target: T1, cynomolgus monkey CD19 on peripheral blood B cells (cynomolgus monkey (Macaca fascicularis), UniProt A0A2K5W8L9 20-557)
- T1 construct: whole, on cells; also called cynomolgus monkey B cells
- T1 sequence: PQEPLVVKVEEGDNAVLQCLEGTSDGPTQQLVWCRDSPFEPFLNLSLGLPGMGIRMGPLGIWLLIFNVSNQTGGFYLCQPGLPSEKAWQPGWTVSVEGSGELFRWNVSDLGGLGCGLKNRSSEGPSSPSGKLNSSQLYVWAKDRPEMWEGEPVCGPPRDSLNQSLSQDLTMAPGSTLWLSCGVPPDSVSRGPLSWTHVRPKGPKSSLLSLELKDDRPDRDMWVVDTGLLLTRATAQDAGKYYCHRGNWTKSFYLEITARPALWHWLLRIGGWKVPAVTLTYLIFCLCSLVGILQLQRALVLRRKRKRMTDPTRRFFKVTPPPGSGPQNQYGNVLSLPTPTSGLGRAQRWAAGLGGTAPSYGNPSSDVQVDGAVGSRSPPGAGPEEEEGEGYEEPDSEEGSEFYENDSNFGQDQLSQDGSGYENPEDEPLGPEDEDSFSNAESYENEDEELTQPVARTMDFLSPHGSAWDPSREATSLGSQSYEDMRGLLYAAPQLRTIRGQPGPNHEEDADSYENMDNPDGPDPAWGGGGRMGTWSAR
- assay.remarks: FACS, cynomolgus PBMC, CD20+ B cells
quantity.kind: Proportion of chimeric antibody positive cells to B cells (%) at 1 nM
Answer format reminder: number followed by unit.

The binder identified as F4.58.6 (antibody, human IgG1, V domains shown, human-murine chimeric antibody, human IgG1) VH: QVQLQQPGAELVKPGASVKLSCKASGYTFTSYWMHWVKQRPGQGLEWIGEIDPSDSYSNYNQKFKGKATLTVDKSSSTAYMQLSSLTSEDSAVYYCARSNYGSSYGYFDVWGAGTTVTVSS VL: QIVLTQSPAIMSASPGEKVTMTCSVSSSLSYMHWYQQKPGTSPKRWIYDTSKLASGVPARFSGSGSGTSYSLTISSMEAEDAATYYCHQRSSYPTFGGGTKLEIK registered its Proportion of chimeric antibody positive cells to B cells (%) at 1 nM at 1%

The binder identified as F4.21.2 (antibody, human IgG1, V domains shown, human-murine chimeric antibody, human IgG1) VH: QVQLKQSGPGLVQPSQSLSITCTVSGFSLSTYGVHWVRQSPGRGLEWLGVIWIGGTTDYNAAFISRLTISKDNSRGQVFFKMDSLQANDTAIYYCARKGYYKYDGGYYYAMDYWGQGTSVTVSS VL: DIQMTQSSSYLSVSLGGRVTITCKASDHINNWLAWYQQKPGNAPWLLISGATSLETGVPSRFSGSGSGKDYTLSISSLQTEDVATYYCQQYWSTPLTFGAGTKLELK registered its Proportion of chimeric antibody positive cells to B cells (%) at 1 nM at 2%

The binder identified as F4.22.6 (antibody, human IgG1, V domains shown, human-murine chimeric antibody, human IgG1) VH: QVQLQQSGPELVKPGASVKISCKASGYAFSSFWMNWVKQRPGQGLEWIGRIYPGDGDTNYNGKFKGKATLTADKSSTTAYMHLSSLTSVDSAVYFCTRSVITAVVDWYFDVWGAGTTVTVSS VL: QIVLSQSPAILSASPGEKVTLTCRASSSVNFMHWYQQKPGSSPKPWIYATSNLASGAPARFSGSGSGTSYSLTISRVEAEDAAAYYCQQWSSYPIFTFGSGTKLEIK registered its Proportion of chimeric antibody positive cells to B cells (%) at 1 nM at 2%

The binder identified as F2.15.26 (antibody, human IgG1, V domains shown, human-murine chimeric antibody, human IgG1) VH: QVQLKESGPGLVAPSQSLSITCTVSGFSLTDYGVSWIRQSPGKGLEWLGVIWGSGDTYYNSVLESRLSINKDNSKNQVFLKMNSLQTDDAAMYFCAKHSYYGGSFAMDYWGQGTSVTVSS VL: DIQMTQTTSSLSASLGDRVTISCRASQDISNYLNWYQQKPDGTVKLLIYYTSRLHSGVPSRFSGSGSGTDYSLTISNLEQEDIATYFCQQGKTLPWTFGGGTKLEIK registered its Proportion of chimeric antibody positive cells to B cells (%) at 1 nM at 2%

The binder identified as F5.8.6 (antibody, human IgG1, V domains shown, human-murine chimeric antibody, human IgG1) VH: QVQLHQPGAELVMPGASVTLSCKASGYTFTSYWMHWVKQRPGQGLEWIGEIDPSDSYTTYDQKFKGKATLTVDKFSSTAYMQFSSLTSEDSAVYYCARLTGNHLDYWGQGTTLTVSS VL: DIVMTQSHKFMSSSVGDRVSITCKASQDVSPAVAWYQQKPGQSPKLLIYSTSYRNTGVPDRFTGSGSGTDFTFTISSVQAEDLAVYYCQQHYSIPLTFGAGTKLELK registered its Proportion of chimeric antibody positive cells to B cells (%) at 1 nM at 5%

---
The binder identified as F4.276.12 (antibody, human IgG1, V domains shown, human-murine chimeric antibody, human IgG1) VH: EIQLQQSGPELVKPGASVKVSCKASGYAFSAYNMYWVKQSHGKSLEWIGYIDPYNGGTNYNQKFKGKATLTVDKSSSTAYMHLNSLTSEDSAVYYCARDGYEVTYWGQGTLVTVSA VL: QIVLTQSPALMSASLGEEITLTCSASSSVTYMHWSQQKSGTSPRLLIYSTSNLASGVPSRFSGSGSGTFYSLTISSVEAEDAADYYCHQWSSYPWTFGGGTKLEIK registered its Proportion of chimeric antibody positive cells to B cells (%) at 1 nM at 2%

The binder identified as F4.96.6 (antibody, human IgG1, V domains shown, human-murine chimeric antibody, human IgG1) VH: EIQLQQSGPELVKPGASVKVSCKASGYAFSAYNIYWVKQSHGKSLEWIGYIDPYNSGTTYNQKFRGKATLTVDKSSNTAYMHLSSLTSEDSAVYYCTRDGDAMDYWGQGTSVTVSS VL: EILLTQSPAIIAASPGEKVTITCSASSGVIYMNWYQQKPGSSPKIWIYDVSTLASGVPARFSGSGSGTSFSFTINSMEAEDVATYYCQQRSSYPYTFGGGTKLEIK registered its Proportion of chimeric antibody positive cells to B cells (%) at 1 nM at 1%

The binder identified as F5.10.6 (antibody, human IgG1, V domains shown, human-murine chimeric antibody, human IgG1) VH: DVQLQESGPGLVKPSQSLSLTCSVTDYSITSGYYWTWIRQFPGNKLEWMGYISYDGSTNYNPSLKNRFSITRDTSKNQFFLKLNSVIIEDTATYYCARDRMSTTWYFDVWGTGTTVTVSS VL: DIVLTQSPASLAVSLGQRATISCRASESVDNYGISFMHWYQQKPGQPPKLLIYRASKTESGIPARFSGSGSRTDFTLTINPVETDDVATYYCQQSNKYPRTFGGGTKVEIK registered its Proportion of chimeric antibody positive cells to B cells (%) at 1 nM at 61%

The binder identified as F4.78.1 (antibody, human IgG1, V domains shown, human-murine chimeric antibody, human IgG1) VH: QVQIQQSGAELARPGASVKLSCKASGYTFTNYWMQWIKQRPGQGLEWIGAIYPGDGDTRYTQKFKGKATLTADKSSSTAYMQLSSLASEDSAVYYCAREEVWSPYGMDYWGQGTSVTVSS VL: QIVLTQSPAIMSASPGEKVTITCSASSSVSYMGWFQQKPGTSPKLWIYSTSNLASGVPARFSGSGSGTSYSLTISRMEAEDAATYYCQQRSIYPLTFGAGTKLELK registered its Proportion of chimeric antibody positive cells to B cells (%) at 1 nM at 21%

The binder identified as F4.272.13 (antibody, human IgG1, V domains shown, human-murine chimeric antibody, human IgG1) VH: QVQLKESGPGLVAPSQSLSITCTVSGFSLTDYGVSWIRQPPGKGLEWLGVIWGSETTFYNSALKSRLSISKDNSKSQLFLQMNSLQADDTAIYYCAKHHYYGGSFSMDYWGQGTSVTVSS VL: DIQMTQTTSSLSASLGDRVTISCRASQDINNYLNWYQQKPDGTVKFLIYYTSRLHSGVPSRFSGSGSGTDYSLTISDLEQEDIATYFCQQGNTLPYTFGGGTKLEIK registered its Proportion of chimeric antibody positive cells to B cells (%) at 1 nM at 1%
